# Target Desc: pT7_6His-AlfaTag-HOXD13 (human, UniProt P35453 263-343)
# Sequence (P35453 263-343): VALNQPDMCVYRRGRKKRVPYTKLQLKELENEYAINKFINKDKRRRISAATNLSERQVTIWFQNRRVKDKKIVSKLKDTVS
# Assay Protocol: PADIT-seq
# Protocol Conditions: dsDNA, one strand shown
Measured Property: binding signal (log2FC)
Give your result in log2FC as a bare value.

| Seq String | binding signal / log2FC |
| --- | --- |
| CTCGAGGATATCAAGATCTGGCCTCGGCCGCCCAACAGGAACCTCTAGCTAGCCGACTCACTATAGGGATAATCGCCCTGAGCAAAGACC | -0.724 |
| CTCGAGGATATCAAGATCTGGCCTCGGCTTATTAAAAGGAACCTCTAGCTAGCCGACTCACTATAGGGATAATCGCCCTGAGCAAAGACC | 3.06 |
| CTCGAGGATATCAAGATCTGGCCTCGGCTTTTTACGAGGAACCTCTAGCTAGCCGACTCACTATAGGGATAATCGCCCTGAGCAAAGACC | 3.37 |
| CTCGAGGATATCAAGATCTGGCCTCGGCGGTTTAAAAGGAACCTCTAGCTAGCCGACTCACTATAGGGATAATCGCCCTGAGCAAAGACC | 1.97 |
| CTCGAGGATATCAAGATCTGGCCTCGGCTTTTTACGTGGAACCTCTAGCTAGCCGACTCACTATAGGGATAATCGCCCTGAGCAAAGACC | 2.42 |
| CTCGAGGATATCAAGATCTGGCCTCGGCAGGCTAAAAGGAACCTCTAGCTAGCCGACTCACTATAGGGATAATCGCCCTGAGCAAAGACC | -0.781 |

Observed binding signal on pT7_6His-AlfaTag-HOXD13 (human, UniProt P35453 263-343), entry `CTCGAGGATATCAAGATCTGGCCTCGGCATGCTAAAAGGAACCTCTAGCTAGCCGACTCACTATAGGGATAATCGCCCTGAGCAAAGACC` , equals 0.0523

Bench note, pT7_6His-AlfaTag-HOXD13 (human, UniProt P35453 263-343): `CTCGAGGATATCAAGATCTGGCCTCGGCCGCCCATTTGGAACCTCTAGCTAGCCGACTCACTATAGGGATAATCGCCCTGAGCAAAGACC` , binding signal reads -0.832

Tested on pT7_6His-AlfaTag-HOXD13 (human, UniProt P35453 263-343), the item `CTCGAGGATATCAAGATCTGGCCTCGGCTCCTTAAAAGGAACCTCTAGCTAGCCGACTCACTATAGGGATAATCGCCCTGAGCAAAGACC` showed binding signal equal to 1.08

`CTCGAGGATATCAAGATCTGGCCTCGGCTTTTTACACGGAACCTCTAGCTAGCCGACTCACTATAGGGATAATCGCCCTGAGCAAAGACC` tested on pT7_6His-AlfaTag-HOXD13 (human, UniProt P35453 263-343) gave binding signal: 2.25

Recorded binding signal for `CTCGAGGATATCAAGATCTGGCCTCGGCCGGATAAAAGGAACCTCTAGCTAGCCGACTCACTATAGGGATAATCGCCCTGAGCAAAGACC` on pT7_6His-AlfaTag-HOXD13 (human, UniProt P35453 263-343) was 0.58
